assay-target: Metabotropic glutamate receptor 8 (Rattus norvegicus) (UniProt P70579)
Sequence (P70579 whole entry, looked up): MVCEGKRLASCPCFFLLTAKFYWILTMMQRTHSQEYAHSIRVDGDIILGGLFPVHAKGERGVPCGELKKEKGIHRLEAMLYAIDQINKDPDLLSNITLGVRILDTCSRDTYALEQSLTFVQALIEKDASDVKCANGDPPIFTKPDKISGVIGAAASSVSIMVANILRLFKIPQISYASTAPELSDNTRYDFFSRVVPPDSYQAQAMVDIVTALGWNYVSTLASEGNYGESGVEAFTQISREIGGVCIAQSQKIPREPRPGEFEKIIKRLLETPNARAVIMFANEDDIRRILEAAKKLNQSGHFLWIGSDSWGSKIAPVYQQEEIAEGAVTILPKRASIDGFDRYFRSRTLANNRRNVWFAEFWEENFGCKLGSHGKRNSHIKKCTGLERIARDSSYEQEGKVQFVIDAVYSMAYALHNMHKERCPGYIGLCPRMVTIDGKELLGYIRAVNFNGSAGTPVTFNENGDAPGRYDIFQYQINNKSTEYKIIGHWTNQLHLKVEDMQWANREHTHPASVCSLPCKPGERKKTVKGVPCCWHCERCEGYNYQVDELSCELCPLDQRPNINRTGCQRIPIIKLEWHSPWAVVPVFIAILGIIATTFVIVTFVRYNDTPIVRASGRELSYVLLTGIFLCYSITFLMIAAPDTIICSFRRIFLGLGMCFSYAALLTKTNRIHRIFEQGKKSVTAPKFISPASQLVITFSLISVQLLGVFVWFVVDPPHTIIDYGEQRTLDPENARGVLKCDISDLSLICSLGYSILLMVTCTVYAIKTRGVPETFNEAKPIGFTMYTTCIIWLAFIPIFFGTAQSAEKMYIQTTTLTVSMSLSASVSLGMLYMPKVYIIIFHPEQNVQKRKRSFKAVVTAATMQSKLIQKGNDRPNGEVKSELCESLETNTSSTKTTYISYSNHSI
assay-protocol: mGluR8 Gi/Go-coupled signaling modulation – cell-based, rat, thallium flux, HTS, primary screen (AID 488969)
condition-context: HEK293 rat mGluR8, GIRK thallium flux, FluoZin2; at 10 µM; stronger effect = higher value; submaximal glutamate (EC20) added with thallium
In all, about 110,000 compounds were measured (“z-score”: median about -0.1, highest 2% from about 2 on). The sample as a whole holds a higher share of the highest values than the screen did.
The following ranges of z-score define the classes used here: group A = under -0.04, group B = from -0.04 up to 0.9, group C = 0.9 and over

INSERT INTO results (compound, group) VALUES
  ('COc1ccc(CC(=O)Nc2cccc(-c3csc(C)n3)c2)cc1', 'group C'),
  ('Cc1cc(SCC(=O)c2cc(C)n(C)c2C)nc2ccccc12', 'group B'),
  ('c1ccc(Oc2cccc(CN3CCCCC3)c2)cc1', 'group A'),
  ('Cc1[nH]c2ccccc2c1CN1CCc2ccccc2C1', 'group C');

Lookup: Would you mind sorting "CCOC(=O)c1c(C)[nH]c(C(=O)OCCOc2ccccc2C)c1C" into the appropriate category?
Found: group A

###

assay-target: Metabotropic glutamate receptor 8 (Rattus norvegicus) (UniProt P70579)
assay-protocol: mGluR8 Gi/Go-coupled signaling modulation – cell-based, rat, thallium flux, HTS, primary screen (AID 488969)
condition-context: HEK293 rat mGluR8, GIRK thallium flux, FluoZin2; at 10 µM; stronger effect = higher value; submaximal glutamate (EC20) added with thallium
In all, about 110,000 compounds were measured (“z-score”: median about -0.1, highest 2% from about 2 on). The entries come from a sample that favours the highest values as a whole.
Class boundaries, taken from values of z-score, are as follows: lo: < -0.3; med: ≥ -0.3 and < 0.3; hi: ≥ 0.3

Please review the entries below; each comes with its answer.
INSERT INTO results (compound, group) VALUES
  ('CCCCNC(=S)N=Nc1c(O)n(Cc2ccccc2)c2ccccc12', 'hi'),
  ('O=C(N/N=C/c1ccc2cccc(OCc3ccccc3)c2n1)c1ccc(Cl)cc1', 'hi'),
  ('COC(=O)Nc1sc(C(=O)N(C)C)c(C)c1C(=O)OC', 'med'),
  ('Cc1cccc(-n2nc3c([n+]2[O-])CCc2nonc2-3)c1C', 'lo'),
  ('O=C(Cn1cnc2c(nnn2Cc2ccc(F)cc2)c1=O)N1CCCCC1', 'med'),
  ('COc1ccc(C(=O)N/N=C/c2ccc3cccc(OCc4ccccc4)c3n2)cc1', 'hi'),
  ('CCCC(=O)OCC(=O)Nc1ccccc1Sc1ccccc1', 'lo'),
  ('CCCn1c(O)c(N=NC(=O)c2ccco2)c2ccccc21', 'hi');

Lookup: // return the class label for "CC(=O)Nc1ccc(OC(=O)c2cc3cc(Br)cc(Br)c3oc2=O)cc1"
Found: med

Lookup: Next: CCN(CC)S(=O)(=O)c1cccc(-c2nnc(SC(C)C(N)=O)n2CCc2ccccc2)c1 (configuration not stated)
Found: med

###

assay-target: Metabotropic glutamate receptor 8 (Rattus norvegicus) (UniProt P70579)
assay-protocol: mGluR8 Gi/Go-coupled signaling modulation – cell-based, rat, thallium flux, HTS, primary screen (AID 488969)
condition-context: HEK293 rat mGluR8, GIRK thallium flux, FluoZin2; at 10 µM; stronger effect = higher value; submaximal glutamate (EC20) added with thallium
Over roughly 110,000 compounds, “z-score” has its median near -0.1; the highest 2% begin near 2. What follows is part of a selection rich in the highest values, with near analogues and random picks from the rest.
measure-name: z-score
Answers are plain numbers.

INSERT INTO results (compound, val) VALUES
  ('COc1cccc(-c2cc(C(=O)N3CCN(Cc4ccccc4)CC3)no2)c1', 0.395),
  ('CC(C)CCNC1=CC(=O)CC(c2ccccc2)C1 (stereo unspecified)', 2.1),
  ('C=CCn1c(SCc2ccccc2)nc(O)cc1=O', 2.19),
  ('O=[N+]([O-])c1ccc(N2CCN(S(=O)(=O)c3ccc(Cl)cc3)CC2)cc1NCC1CCCO1 (stereo unspecified)', -0.211),
  ('CN1C(=O)C(O)(C2OC(C)(C)CCC2=O)c2ccccc21 (stereo unspecified)', -0.0799);

Hi! Can you tell me z-score for each of these compounds?
1. C=CCn1c(SCC)nc(O)cc1=O
2. COc1cccc(C(=O)/C=C/Nc2cccc(O)c2)c1

Found:
-0.0583
-0.665

###

assay-target: Metabotropic glutamate receptor 8 (Rattus norvegicus) (UniProt P70579)
assay-protocol: mGluR8 Gi/Go-coupled signaling modulation – cell-based, rat, thallium flux, HTS, primary screen (AID 488969)
condition-context: HEK293 rat mGluR8, GIRK thallium flux, FluoZin2; at 10 µM; stronger effect = higher value; submaximal glutamate (EC20) added with thallium
In all, about 110,000 compounds were measured (“z-score”: median about -0.1, highest 2% from about 2 on). The sample holds the highest values, similar compounds and a random draw of the others, so the mix is not that of the screen.
Bucketed by reported z-score, buckets being label 0: < -0.2; label 1: ≥ -0.2 and < -0.03; label 2: ≥ -0.03

// below: answered compounds
INSERT INTO measurements (compound, group) VALUES
  ('CCN(C(=O)c1ccco1)c1nc(CC(=O)Nc2ccc(Cl)cc2)cs1', 'label 0'),
  ('CCOc1ccccc1NC(=O)CN(C)S(=O)(=O)c1cccc2nsnc12', 'label 1');

Lookup: Into which bin does this compound go? "COC(=O)c1ccc2c(=O)n(Cc3ccco3)c(SCC(=O)Nc3ccc(C)c(Cl)c3)nc2c1"
Found: label 2

Lookup: Now try CC(C(=O)Nc1ccc([N+](=O)[O-])cc1)N1CCN(C/C=C/c2ccccc2)CC1 (configuration not stated) .
Found: label 1

###

assay-target: Metabotropic glutamate receptor 8 (Rattus norvegicus) (UniProt P70579)
assay-protocol: mGluR8 Gi/Go-coupled signaling modulation – cell-based, rat, thallium flux, HTS, primary screen (AID 488969)
condition-context: HEK293 rat mGluR8, GIRK thallium flux, FluoZin2; at 10 µM; stronger effect = higher value; submaximal glutamate (EC20) added with thallium
Over roughly 110,000 compounds, “z-score” has its median near -0.1; the highest 2% begin near 2. Only a selection was taken, and the highest values are over-represented in it overall.
measure-name: z-score
Answers are plain numbers.

INSERT INTO results (compound, measure_name, val) VALUES
  ('Cc1c(C(=O)Nc2ccc(-c3nnc4n3CCCCC4)cc2)oc2ccc(Br)cc12', 'z-score', -0.49),
  ('CCOc1ccc(Nc2ncnc3c2cnn3Cc2ccccc2)cc1', 'z-score', 2.26),
  ('C=C1C2(C(=O)Nc3ccc(SC(F)F)cc3)CCC(C2)C1(C)C (stereo unspecified)', 'z-score', 0.546),
  ('CC12CCC(C(=O)Nc3ccc(SC(F)F)cc3)(CC1=O)C2(C)C (stereo unspecified)', 'z-score', 0.519),
  ('NS(=O)(=O)c1ccc(NC(=O)COC(=O)CCC2CCCCC2)cc1', 'z-score', -0.157);

Go through the items and report each one's z-score.
1. COc1ccc(C(C(=O)NC(C)(C)C)N(CC2CCCO2)C(=O)CCC(=O)Nc2cc(C)on2)cc1 (stereo unspecified)
2. Nc1nnc(SCC(=O)c2ccco2)s1
3. COc1ccc(Nc2ncnc3c2cnn3Cc2ccccc2)cc1OC
4. CCOC(=O)C(NC(=O)c1ccccc1)(OCc1ccc(F)cc1)C(F)(F)F (stereo unspecified)
5. COc1ccc(Nc2ncnc3c2cnn3Cc2ccccc2)cc1
6. O=C(Nc1ccc2oc(-c3ccncc3)nc2c1)c1cccs1

Found:
-0.202
-0.0604
-0.181
0.14
-1.73
-1.18

###

assay-target: Metabotropic glutamate receptor 8 (Rattus norvegicus)
assay-protocol: mGluR8 Gi/Go-coupled signaling modulation – cell-based, rat, thallium flux, HTS, primary screen (AID 488969)
condition-context: HEK293 rat mGluR8, GIRK (G protein-gated inwardly rectifying potassium channel) thallium flux, FluoZin2; at 10 µM; stronger effect = higher value; submaximal glutamate (EC20) added with thallium
The full ranking holds about 110,000 compounds; the median of “z-score” is about -0.1, and the highest 2% start at about 2. The sample holds the highest values, similar compounds and a random draw of the others, so the mix is not that of the screen. Active and inactive are the calls of the source.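 The calls were made as follows: active = z-score in the third read window above 3 or below -3; inactive = the rest.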
measure-name: z-score

Would you please look over these solved cases?
INSERT INTO measurements (molecule, assay_target, measure_name, val) VALUES
  ('CC(=O)c1cn(CC(=O)NCc2ccco2)c2ccccc12', 'Metabotropic glutamate receptor 8 (Rattus norvegicus)', 'z-score', -0.774),
  ('Cc1noc(C)c1C(c1ccccc1)S(=O)(=O)c1ccccc1 (stereo unspecified)', 'Metabotropic glutamate receptor 8 (Rattus norvegicus)', 'z-score', 0.53),
  ('COc1ccc(CN(C(=O)c2ccco2)c2ccc(Br)cc2)cc1OC', 'Metabotropic glutamate receptor 8 (Rattus norvegicus)', 'z-score', -0.544),
  ('COC(=O)c1sccc1-c1ccc(/C=N/OCc2c(Cl)cccc2Cl)o1', 'Metabotropic glutamate receptor 8 (Rattus norvegicus)', 'z-score', -0.187),
  ('CCCCN(CCCC)C(=S)NC(=O)C(C)(C)C', 'Metabotropic glutamate receptor 8 (Rattus norvegicus)', 'z-score', '5.35 (active)'),
  ('Nn1c(SCC(=O)Nc2ccc3c(c2)OCCO3)nnc1-c1ccccn1', 'Metabotropic glutamate receptor 8 (Rattus norvegicus)', 'z-score', -0.0196),
  ('COc1ccc([N+](=O)[O-])cc1NC(=O)C(C)Sc1ccc(C)cc1 (stereo unspecified)', 'Metabotropic glutamate receptor 8 (Rattus norvegicus)', 'z-score', -0.545),
  ('CCCNC(=O)C(NS(=O)(=O)c1cccc2nsnc12)c1ccccc1 (stereo unspecified)', 'Metabotropic glutamate receptor 8 (Rattus norvegicus)', 'z-score', -0.0978),
  ('C/C(=N\Nc1cc(-c2ccccc2)nc(-c2ccc(Br)cc2)n1)c1cccc(N)c1', 'Metabotropic glutamate receptor 8 (Rattus norvegicus)', 'z-score', -0.0597),
  ('O=[N+]([O-])c1ccc(Cl)c(/C=N/N2CCN(c3ccccc3)CC2)c1', 'Metabotropic glutamate receptor 8 (Rattus norvegicus)', 'z-score', -0.188);

// next item, z-score requested
Lookup: Give its z-score value. Item: "CC(C)(C)C(=O)NC(=S)N1CCCC1"
Found: -0.128
